System: NCI-H322M lung
ASSAY REMARKS: NCI-60 one-dose screen, 48 h (100 = growth as untreated, 0 = no growth, -100 = all killed)
CONDITION: 10 µM unless noted
This is part of a sample that, as a whole, favours compounds with a hit. Of some 83,000 tested, about 20% had one in any assay. Active and inactive are the calls of the source. The calls were made as follows: active = growth percent below 10; inactive = the rest.
METRIC NAME: growth

Use the examples below as a reference point.
1) CCOC(=O)CC1CSC(Nc2ccccc2)=N1 (configuration not stated)    96.5% (inactive)
2) N#CC1CCc2c(c(-c3ccc4nc(N)sc4c3)nc3ccc4[nH]ncc4c23)C1 (configuration not stated)    70.5% (inactive)

**Q:** For CO[C@H](C(=O)[C@@H](O)[C@@H](C)O)[C@@H]1Cc2cc3cc(O[C@H]4C[C@@H](O[C@H]5C[C@@H](O)[C@H](O)C(C)O5)[C@H](O)C(C)(O)O4)cc(O)c3c(O)c2C(=O)[C@H]1O[C@H]1C[C@@H](O[C@H]2C[C@@H](O[C@H]3C[C@@H](OC)[C@H](O)C(C)O3)[C@@H](O)C(C)O2)[C@H](O)C(C)O1 (some centres not stated) , what is its reported growth?
**A:** 21.1% (inactive)

**Q:** For CCOC(=O)c1ccccc1-c1c2ccc(=[N+](C)C)cc-2oc2cc(N(C)C)ccc12 , what is its reported growth?
**A:** 12.6% (inactive)

**Q:** For COc1ccc(C2=NN(C(C)=O)C(c3cn(-c4ccccc4)nc3-c3ccc(Cl)cc3)C2)cc1 (configuration not stated) , what is its reported growth?
**A:** 47.8% (inactive)

**Q:** For C#CCn1cnc2cnc(Nc3cccc(NC(=O)C=C)c3)nc21 , what is its reported growth?
**A:** 96.1% [6.25 µM] (inactive)

**Q:** For O=C(CN1CCN(c2cc3c(cc2F)c(=O)c(C(=O)O)cn3C2CC2)CC1)N/N=C/c1ccco1 , what is its reported growth?
**A:** 95% (inactive)

**Q:** For O=S(=O)(NCCNc1nccc(-c2c(-c3cccc(O)c3)nc3occn23)n1)c1ccc(Br)cc1 , what is its reported growth?
**A:** 42.3% (inactive)

**Q:** For CN1CCN(Cc2ccc(NC(=O)c3cncc(C#Cc4cnc(N)c5ccc(F)cc45)c3)cc2C(F)(F)F)CC1 , what is its reported growth?
**A:** 23.5% (inactive)
